Kindly state composite z-score for each of the entries shown.
Biological target: Neurogenic locus notch homolog protein 2 (Homo sapiens) (UniProt Q04721)
Sequence (Q04721 whole entry, looked up): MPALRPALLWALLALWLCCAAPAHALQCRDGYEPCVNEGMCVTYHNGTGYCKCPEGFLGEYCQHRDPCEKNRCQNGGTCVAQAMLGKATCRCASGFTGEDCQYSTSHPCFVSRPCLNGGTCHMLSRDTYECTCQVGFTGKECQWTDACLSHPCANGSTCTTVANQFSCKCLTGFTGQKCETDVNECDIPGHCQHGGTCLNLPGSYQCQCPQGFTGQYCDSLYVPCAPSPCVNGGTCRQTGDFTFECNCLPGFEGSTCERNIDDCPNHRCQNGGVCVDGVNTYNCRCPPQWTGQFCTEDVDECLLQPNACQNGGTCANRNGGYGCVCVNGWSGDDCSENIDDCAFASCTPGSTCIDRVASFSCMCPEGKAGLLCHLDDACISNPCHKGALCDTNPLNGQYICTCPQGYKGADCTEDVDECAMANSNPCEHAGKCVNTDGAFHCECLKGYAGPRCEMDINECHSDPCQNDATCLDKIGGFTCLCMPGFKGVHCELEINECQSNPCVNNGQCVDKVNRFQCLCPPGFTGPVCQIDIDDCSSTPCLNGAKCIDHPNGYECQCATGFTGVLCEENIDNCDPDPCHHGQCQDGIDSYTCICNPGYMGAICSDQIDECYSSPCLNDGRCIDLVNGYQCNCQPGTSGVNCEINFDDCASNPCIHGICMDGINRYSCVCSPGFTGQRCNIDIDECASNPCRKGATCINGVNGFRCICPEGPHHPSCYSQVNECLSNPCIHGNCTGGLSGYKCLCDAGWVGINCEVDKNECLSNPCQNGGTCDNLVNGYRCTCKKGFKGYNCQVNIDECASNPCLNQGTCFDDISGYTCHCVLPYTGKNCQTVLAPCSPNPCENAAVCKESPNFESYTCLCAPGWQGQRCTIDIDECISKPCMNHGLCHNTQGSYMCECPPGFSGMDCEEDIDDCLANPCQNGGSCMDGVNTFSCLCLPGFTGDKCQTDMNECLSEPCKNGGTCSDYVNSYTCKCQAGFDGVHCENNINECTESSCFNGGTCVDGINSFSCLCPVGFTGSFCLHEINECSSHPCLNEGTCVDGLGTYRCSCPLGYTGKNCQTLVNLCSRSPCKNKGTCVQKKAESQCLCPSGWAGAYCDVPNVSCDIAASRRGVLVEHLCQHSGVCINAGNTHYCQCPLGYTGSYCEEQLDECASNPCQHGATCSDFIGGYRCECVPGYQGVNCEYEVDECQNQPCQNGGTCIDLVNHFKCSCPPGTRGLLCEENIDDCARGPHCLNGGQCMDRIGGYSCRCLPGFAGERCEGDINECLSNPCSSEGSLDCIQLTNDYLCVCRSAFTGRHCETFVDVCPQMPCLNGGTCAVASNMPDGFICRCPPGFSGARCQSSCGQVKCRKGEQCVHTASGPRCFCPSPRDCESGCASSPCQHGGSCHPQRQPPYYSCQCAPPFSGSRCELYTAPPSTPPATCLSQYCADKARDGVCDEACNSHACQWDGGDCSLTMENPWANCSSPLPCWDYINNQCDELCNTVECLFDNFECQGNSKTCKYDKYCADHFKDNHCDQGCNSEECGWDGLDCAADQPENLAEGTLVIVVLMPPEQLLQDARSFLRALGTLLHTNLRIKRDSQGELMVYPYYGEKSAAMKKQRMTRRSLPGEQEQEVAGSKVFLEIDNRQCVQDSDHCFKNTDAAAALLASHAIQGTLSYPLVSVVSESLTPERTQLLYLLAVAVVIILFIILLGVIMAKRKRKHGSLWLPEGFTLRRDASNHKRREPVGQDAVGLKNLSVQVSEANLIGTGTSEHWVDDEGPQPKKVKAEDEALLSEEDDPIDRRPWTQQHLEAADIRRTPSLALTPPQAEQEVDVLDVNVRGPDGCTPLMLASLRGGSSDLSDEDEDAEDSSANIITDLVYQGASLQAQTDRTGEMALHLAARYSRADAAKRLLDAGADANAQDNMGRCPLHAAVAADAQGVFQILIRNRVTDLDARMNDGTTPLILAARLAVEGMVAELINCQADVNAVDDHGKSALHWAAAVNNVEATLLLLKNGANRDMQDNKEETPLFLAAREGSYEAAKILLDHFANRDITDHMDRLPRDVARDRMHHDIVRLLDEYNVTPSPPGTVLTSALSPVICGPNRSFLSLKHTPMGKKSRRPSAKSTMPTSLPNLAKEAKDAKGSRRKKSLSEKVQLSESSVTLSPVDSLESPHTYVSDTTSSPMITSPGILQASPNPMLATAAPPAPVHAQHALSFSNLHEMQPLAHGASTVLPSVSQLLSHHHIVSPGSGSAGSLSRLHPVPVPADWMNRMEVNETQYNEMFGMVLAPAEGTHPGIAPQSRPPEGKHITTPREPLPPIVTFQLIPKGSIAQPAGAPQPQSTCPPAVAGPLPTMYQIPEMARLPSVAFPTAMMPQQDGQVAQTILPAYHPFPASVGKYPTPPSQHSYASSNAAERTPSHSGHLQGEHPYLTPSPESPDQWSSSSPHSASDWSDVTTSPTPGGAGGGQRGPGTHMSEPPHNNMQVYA
Experiment: Notch2 binders on small-molecule microarrays, primary screen, biochemical, small-molecule microarray, 635 nm fluorescence, stem cell growth factors (AID 1073)
Details: Notch2 binding, higher = more signal
I'd appreciate a reply containing only the number, no unit.

Using Neurogenic locus notch homolog protein 2 (Homo sapiens) (UniProt Q04721) as the test system, report measured composite z-score of [N-]=[N+]=Nc1ccccc1C[C@]1(C(=O)NCCN2CCOCC2)N=C(c2ccc(OCCCO)cc2)O[C@H]1c1ccccc1 .
1.05

Lab note: Neurogenic locus notch homolog protein 2 (Homo sapiens) (UniProt Q04721) assay, enter composite z-score for CC(C)(C)OC(=O)CC[C@@]1(C(=O)O)N=C(c2ccc(OCCCO)cc2)O[C@@H]1c1ccccc1N=[N+]=[N-] here
0.984

Fill in: composite z-score on Neurogenic locus notch homolog protein 2 (Homo sapiens) (UniProt Q04721), entry CC(C)CNC(=O)[C@@]1(c2ccc([N+](=O)[O-])cc2)CC(=O)N(CC23CC4CC(CC(C4)C2)C3)[C@@H]1c1ccc(CO)cc1I
1.34

Write down measured composite z-score (Neurogenic locus notch homolog protein 2 (Homo sapiens) (UniProt Q04721)) for this compound. C[C@]1(C(=O)NCc2ccccc2)c2ccccc2C(=O)N(Cc2cc(F)cc(C(F)(F)F)c2)[C@H]1c1ccc(CO)cc1
-0.706

GET composite z-score | system: Neurogenic locus notch homolog protein 2 (Homo sapiens) (UniProt Q04721) | item: C=C[C@H](COC(C)=O)N(Cc1ccc(OC(C)=O)c(OC)c1)S(=O)(=O)c1ccc(Br)cc1
0.86

For Neurogenic locus notch homolog protein 2 (Homo sapiens) (UniProt Q04721), give composite z-score of the listed compound: Cc1ccc(S[C@]2(C(=O)NCCN3CCOCC3)CC(=O)N(Cc3cc(C(F)(F)F)cc(C(F)(F)F)c3)[C@@H]2c2ccc(CO)cc2I)cc1
-0.297

* * *

Assay: RPMI8226 myeloma cell viability, profiling panel, resazurin fluorescence, basal, 24 h, PK04 Diversity Set (AID 1180);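 note: RPMI8826 multiple myeloma cell line at 5000 cells per well; test concentration not given here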
Details: higher = more signal
Lab note: compare z-score against -0.5. Equal or greater, write True. Smaller, write False.

# bool: z-score of CC(C)(C)OC(=O)CC[C@@]1(C(=O)NCCN2CCOCC2)N=C(c2ccc(OCCCO)cc2)O[C@@H]1c1ccccc1 >= -0.5
True

Hi team, for CC(C)C[C@@H]1NC(=O)[C@H]2C[C@@H](C(=O)NCCCCCCNC(=O)CS)[C@@H](c3cccc(OCCO)c3)N2C1=O , is the recorded z-score at or above -0.5?
True

Hi, just wondering whether Cc1c(NC(=O)CC#N)c(=O)n(-c2ccccc2)n1C shows z-score of -0.5 or higher.
True

z-score >= -0.5 for CC(C)CNC(=O)[C@@H]1c2ccccc2C(=O)N(Cc2cc(C(F)(F)F)cc(C(F)(F)F)c2)[C@H]1c1ccc(CO)cc1 ?
True

Answer whether z-score of CCCCCN1CC=CC23O[C@@H]4/C=C\CCC(C)OC(=O)C4[C@H]2C(=O)N(CCCCCO)[C@@H]3C1=O (stereo partly drawn) is greater than or equal to -0.5.
True

Evaluate COc1ccc([Si](C)(C)[C@H]2[C@H](CCn3cc([C@H](O)c4ccccc4)nn3)O[C@@]3(C(=O)N(Cc4cccc(N5CCC5=O)c4)c4ccccc43)[C@@H]2C)cc1 : z-score at minimum -0.5?
True

Test whether the molecule O=C1C[C@]2(c3ccc([N+](=O)[O-])cc3)C(=O)N(CC(F)(F)F)c3cc(CO)ccc3[C@H]2N1CC12CC3CC(CC(C3)C1)C2 records z-score of -0.5 or higher.
True

Check if z-score >= -0.5 (inclusive). Item: N#Cc1ccc(NN2C(C(O)c3ccc([N+](=O)[O-])cc3)C=CC3C(=O)N(c4ccccc4)C(=O)C32)cc1 (stereo not drawn)
False

Given the entry N#Cc1ccc(NN2C(C(O)C3CCCCC3)C=CC3C(=O)N(c4ccccc4)C(=O)C32)cc1 (stereo not drawn) , answer whether its z-score meets or surpasses -0.5.
False

Given the entry [N-]=[N+]=NCc1ccccc1C[C@@]1(C(=O)NCC(O)CO)N=C(c2ccc(OCCCO)cc2)O[C@@H]1c1ccccc1CN=[N+]=[N-] (stereo partly drawn) , answer whether its z-score meets or surpasses -0.5.
False

For this molecule, is measured z-score -0.5 or higher? CCOC(=O)C1=CCC(c2ccc(C#N)cc2)N(S(=O)(=O)c2ccc(C)cc2)C1 (stereo not drawn)
False

# bool: z-score of COCCOC(=O)N1C(=O)[C@@]2(c3cc(C#CCC(C(=O)OC)C(=O)OC)ccc31)[C@H](c1ccccc1OCCO)N1[C@H](c3ccccc3)[C@H](c3ccccc3)OC(=O)[C@H]1[C@@H]2C(N)=O >= -0.5
False

Is the recorded value of z-score equal to or greater than -0.5 for this molecule? CCCN1C(=O)[C@]2(COC(c3ccc(OCCCO)cc3)=N2)Cc2ccccc21
True

Would you say COc1ccc(CCN2C(=O)[C@@]3(Cc4ccccc42)c2ccccc2C(=O)N(Cc2ccccc2Cl)[C@H]3c2ccc(CO)cc2)cc1 shows z-score at minimum -0.5?
True

Could you verify whether the entry O=C1O[C@@H](c2ccccc2)[C@@H](c2ccccc2)N2[C@@H](c3ccc(OCCO)cc3)[C@]3(C(=O)Nc4ccccc43)[C@@H](C(=O)Nc3nc4ccccc4s3)[C@H]12 shows z-score of no less than -0.5?
False

Form field: z-score at least -0.5? Entry: CN1C(=O)C2C(C1=O)C1C=C(CCCO)C2C(c2cccs2)N1C (stereo not drawn)
False

Decide: z-score of [N-]=[N+]=NCc1ccccc1C[C@]1(C(=O)NCCN2CCOCC2)N=C(c2ccc(OCCCO)cc2)O[C@H]1c1ccccc1N=[N+]=[N-] >= -0.5?
False

Decide: is the reported value of z-score for COc1ccc(CCNC(=O)[C@@]2(Sc3ccc(C)cc3)CC(=O)N(Cc3ccccc3Cl)[C@@H]2c2ccc(CO)cc2I)cc1 equal to or greater than -0.5?
False

* * *

Assay: COS7 lysate on small-molecule microarray, probe aHis, 635 nm (AID 1123);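 note: z-score combines 667nm fluorescence intensity with signal-to-noise per printed compound spot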
Conditions: COS7 cell lysate, fluorescence, higher = more signal
readoutName: composite z-score
Would you mind answering with just the numeric figure?

Write down composite z-score measured for item Cc1c(NC(=O)CC#N)c(=O)n(-c2ccccc2)n1C
0.0776

For the compound COCCOC(=O)N1C(=O)[C@@]2(c3cc(C#CCC(C(=O)OC)C(=O)OC)ccc31)[C@H](c1ccc(O)cc1)N1[C@H](c3ccccc3)[C@H](c3ccccc3)OC(=O)[C@H]1[C@@H]2C(N)=O , give its reported composite z-score.
1.2

Provide only the value of recorded composite z-score for COc1ccc(C(O)C2C=CC3C(=O)N(C)C(=O)C3N2Nc2ccccc2)cc1OCc1ccccc1 (stereo not given)
1.67

Fill in composite z-score for record C=CC[C@@]1(C(=O)N2CCOCC2)N=C(c2ccc(OCCCO)cc2)O[C@@H]1c1ccccc1N=[N+]=[N-]
2.43

Read the entry C=C(CCCC)/C(=C/C[C@H](OC(C)=O)c1ccc(CO)o1)c1cnc2ccccc2c1 and write its reported composite z-score.
0.612

Output composite z-score of C=CCNC(=O)[C@@H]1[C@H]2C(=O)O[C@H](c3ccccc3)[C@H](c3ccccc3)N2[C@H](c2ccc(OCCO)cc2)[C@@]12C(=O)Nc1ccccc12
1.91

Name the recorded composite z-score of the item O=C1N(CCS(=O)(=O)c2ccccc2)Cc2ccccc2C[C@]12N=C(c1ccc(OCCCO)cc1)O[C@@H]2c1ccccc1 in your answer.
3.41

Specify composite z-score for COc1ccc(C#Cc2ccc3c(c2)[C@]2(C(=O)N3)[C@H](C(=O)NC[C@H](O)c3ccccc3)[C@H]3C(=O)O[C@H](c4ccccc4)[C@H](c4ccccc4)N3[C@@H]2c2ccccc2OCCO)cc1 and stop.
1.8

Given the compound COCCOC(=O)N1C(=O)[C@@]2(c3cc(C#CCC(C(=O)OC)C(=O)OC)ccc31)[C@H](c1ccccc1OCCO)N1[C@H](c3ccccc3)[C@H](c3ccccc3)OC(=O)[C@H]1[C@@H]2C(=O)N1CCc2cc(OC)c(OC)cc2C1 , write its reported composite z-score.
0.833

Respond only with composite z-score recorded for Cc1cc(C)c(C(O)C2C=CC3C(=O)N(C)C(=O)C3N2Nc2ccccc2)c(C)c1 (stereo not given)
1.2

* * *

Field: composite z-score. Provide a value for each of the compounds that follow.
Test: small-molecule binders of probe aNOTCH2, primary screen, biochemical, small-molecule microarray, 635/667 nm fluorescence (AID 1121);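 note: score merges feature fluorescence read at 667 nm with its signal to noise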
Conditions: higher = more signal
Respond with the number and no other words.

Supply measured composite z-score of CCC[C@@H]1C=C(C(=O)O)[C@H](c2ccc(C)cc2)N1S(=O)(=O)c1ccc(C)cc1 in your reply.
0.0029

Note composite z-score for the compound shown: CCOC(=O)C[C@H]1[C@H](OC(=O)c2ccccc2-c2ccccc2)[C@@H](NC(=O)c2ccc3ccccc3c2)c2cc(OCCCO)ccc2N1C(=O)c1ccc2ccccc2n1
-0.14

Retrieve composite z-score measured for CS(=O)(=O)CCOC(=O)C1=CC(CCCO)=CC(c2cccs2)N(Cc2cc3c(cc2Br)OCO3)C=C1C(=O)OCCS(C)(=O)=O (centres undefined) and print it.
-0.0149

Tell us which composite z-score value is on record for CCCN1C(=O)[C@@]2(CCC(=O)OC(C)(C)C)N=C(c3ccc(OCCCO)cc3)O[C@H]2c2ccccc21
-0.0633

Look up composite z-score of CC1CC/C=C\[C@H]2OC34C=CCN(Cc5ccccc5)C(=O)[C@H]3N(CCCCCO)C(=O)[C@@H]4C2C(=O)O1 (some centres undefined) and report it.
-0.19

Supply composite z-score value. Item: CCCCCN1CC=CC23O[C@@H]4/C=C\CCC(C)OC(=O)C4[C@H]2C(=O)N(CCCCCO)[C@@H]3C1=O (some centres undefined)
-0.144

Identify measured composite z-score corresponding to CC(C)C[C@@H]1NC(=O)[C@H]2C[C@@H](C(=O)NCCCCCCNC(=O)CS)[C@@H](c3cccc(OCCO)c3)N2C1=O
-0.132

Indicate the recorded composite z-score value for this compound: CCOC(=O)C1=C[C@@H](CC)N(S(=O)(=O)c2ccc(C)cc2)[C@H]1c1ccccc1
0.0572

Let me know recorded composite z-score for [N-]=[N+]=Nc1ccccc1[C@H]1OC(c2ccc(OCCCO)cc2)=N[C@@]1(CCS(=O)(=O)c1ccccc1)C(=O)O , thanks.
0.0278

Fill in reported composite z-score for this entry: O=C/C=C/c1ccc2c(c1)OCO2
-0.109

Specify measured composite z-score for C=CCN1C(=O)[C@]2(O[C@H](CCO)[C@@H]([Si](C)(C)c3ccc(OC)cc3)[C@@H]2C)c2cc(NC(=O)[C@H](C)O)ccc21 .
-0.0666

Input CC(C)NC(=O)[C@@]1(Cc2ccccc2I)c2ccccc2C(=O)N(Cc2ccccc2)[C@H]1c1ccc(CO)cc1 , output reported composite z-score.
-0.0608

Please give the documented composite z-score of COc1ccc([Si](C)(C)[C@@H]2[C@@H](CC(=O)N(CCO)Cc3ccccc3)O[C@]3(C(=O)N(C)c4ccccc43)[C@H]2C)cc1
0.0022

Return value of composite z-score for input CCCN1C(=O)[C@]2(COC(c3ccc(OCCCO)cc3)=N2)Cc2ccccc21 , no commentary.
-0.0009
